- System Under Test: HLA-C*14:02
- Assay Procedure: IEDB peptide-MHC binding, purified MHC/direct/fluorescence; filed as Kd, often an IC50 or EC50 that approximates it; bounds were set here for any values at or beyond the usual limits of such assays
- Cond: source organism: Yellow fever virus
Parameter Measured: pKd
API: returns pKd as number; meaning -log10 of concentration in mol/L.

Looking for the measured pKd of "YVIRDLAAM" , can you help?
7.10

---

- System Under Test: HLA-A*24:03
- Assay Procedure: IEDB peptide-MHC binding, purified MHC/competitive/fluorescence; filed as Kd, often an IC50 or EC50 that approximates it; bounds were set here for any values at or beyond the usual limits of such assays
- Cond: source organism: Choclo virus
pKd: −log10 of the molar value.
Parameter Measured: pKd

Value wanted: pKd (HLA-A*24:03) of entry "HWMDATFNI"
≥ 10.00

---

For each of the sequences below, state its pIC50.
- System Under Test: HLA-A*24:02
- Assay Procedure: IEDB peptide-MHC binding, purified MHC/competitive/fluorescence; bounds were set here for any values at or beyond the usual limits of such assays
- Cond: source organism: Vaccinia virus WR
API: returns pIC50 as number; meaning -log10 of concentration in mol/L.

Looking for the measured pIC50 of "KLYLVDYGL" , can you help?
4.78

Repeat for the following sequence: "LYKSINVEY"
6.96

---

- System Under Test: HLA-A*80:01
- Assay Procedure: IEDB peptide-MHC binding, purified MHC/direct/fluorescence; filed as Kd, often an IC50 or EC50 that approximates it; bounds were set here for any values at or beyond the usual limits of such assays
- Cond: source organism: West Nile virus
Parameter Measured: Kd

Looking for the measured Kd of "VVEKQSGLY" , can you help?
0.8 nM

Repeat for the following sequence: "QTDNQLAVF"
≥ 20000 nM

---

- System Under Test: HLA-A*29:02
- Assay Procedure: IEDB peptide-MHC binding, purified MHC/competitive/fluorescence; filed as Kd, often an IC50 or EC50 that approximates it; bounds were set here for any values at or beyond the usual limits of such assays
- Cond: source organism: Mus musculus
Parameter Measured: Kd (pM)
Report only the number, with the unit pM understood.

Looking for the measured Kd of "AFFAERLYY" , can you help?
200

---

- System Under Test: HLA-A*68:02
- Assay Procedure: IEDB peptide-MHC binding, purified MHC/direct/fluorescence; filed as Kd, often an IC50 or EC50 that approximates it; bounds were set here for any values at or beyond the usual limits of such assays
- Cond: source organism: Coxiella burnetii
pKd: −log10 of the molar value.
Parameter Measured: pKd

Value wanted: pKd (HLA-A*68:02) of entry "KFFMVHSLK"
≤ 4.70

---

- System Under Test: HLA-B*57:01
- Assay Procedure: IEDB peptide-MHC binding, purified MHC/competitive/fluorescence; filed as Kd, often an IC50 or EC50 that approximates it; bounds were set here for any values at or beyond the usual limits of such assays
- Cond: source organism: Choclo virus
pKd: −log10 of the molar value.
Parameter Measured: pKd

Looking for the measured pKd of "HWMDATFNI" , can you help?
≤ 4.70

---

- System Under Test: HLA-A*23:01
- Assay Procedure: IEDB peptide-MHC binding, purified MHC/direct/fluorescence; filed as Kd, often an IC50 or EC50 that approximates it; bounds were set here for any values at or beyond the usual limits of such assays
- Cond: source organism: Limestone Canyon virus
pKd: −log10 of the molar value.
Parameter Measured: pKd

Looking for the measured pKd of "EKLKKKSAF" , can you help?
≤ 4.70
